Measurement target: Recombinant human JAK2 kinase domain protein (Residues 812-1132) (Homo sapiens, UniProt O60674)
Sequence (O60674 812-1132): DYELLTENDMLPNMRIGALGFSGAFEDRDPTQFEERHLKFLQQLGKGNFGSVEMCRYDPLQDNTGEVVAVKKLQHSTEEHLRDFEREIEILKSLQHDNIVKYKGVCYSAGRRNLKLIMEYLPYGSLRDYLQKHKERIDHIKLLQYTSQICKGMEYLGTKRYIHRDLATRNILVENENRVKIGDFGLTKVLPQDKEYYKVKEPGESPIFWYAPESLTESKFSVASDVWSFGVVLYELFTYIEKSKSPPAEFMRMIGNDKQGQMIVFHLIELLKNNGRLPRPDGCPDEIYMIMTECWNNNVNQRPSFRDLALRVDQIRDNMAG
Assay method text: JAK2 biochemical assay (LabChip mobility shift, Ki)
Condition: Biochem JAK2 Ki
Quantity name: Ki
Provide a numeric answer, followed by its unit.

Consider the worked cases shown below.
• Cn1cc(NC(=O)c2cnn3cccnc23)c(-c2cc(Oc3ccccn3)ccc2OC(F)F)n1 = 0.57 nM
• CN(C)C1CCCN(C(=O)c2cccc(Oc3ccc(OC(F)F)c(-c4nn(C)cc4NC(=O)c4cnn5cccnc45)c3)c2)C1 (racemic) = 0.89 nM
• CN1CC(O)C(n2cc(Oc3ccc(OC(F)F)c(-c4nn(C)cc4NC(=O)c4cnn5cccnc45)c3)cn2)C1 (stereo not shown) [Example 179] = 0.4 nM
• Cn1cc(NC(=O)c2cnn3cccnc23)c(-c2cc(Oc3cnn(C4CNC4)c3)ccc2OC(F)F)n1 = 0.84 nM

Fill in: Ki of "Cn1cc(NC(=O)c2cnn3cccnc23)c(-c2cc(Oc3cccnc3)ccc2OC(F)F)n1" is ___
0.19 nM

Fill in: Ki of "Cc1cc(Oc2ccc(OC(F)F)c(-c3nn(C)cc3NC(=O)c3cnn4cccnc34)c2)cc(C2(O)CNC2)c1" is ___
0.23 nM

Fill in: Ki of "Cn1cc(NC(=O)c2cnn3cccnc23)c(-c2cc(Oc3cnn(CC(C)(C)O)c3)ccc2OC(F)F)n1" is ___
0.21 nM

Sourced from patent US12528812B2
